Target: T1, His-tagged CEACAM1 (human, UniProt P13688 35-428)
T1 construct: 45 kDa SPR analyte; also called CEACAM1-HIS; CEACAM1 analyte
T1 sequence: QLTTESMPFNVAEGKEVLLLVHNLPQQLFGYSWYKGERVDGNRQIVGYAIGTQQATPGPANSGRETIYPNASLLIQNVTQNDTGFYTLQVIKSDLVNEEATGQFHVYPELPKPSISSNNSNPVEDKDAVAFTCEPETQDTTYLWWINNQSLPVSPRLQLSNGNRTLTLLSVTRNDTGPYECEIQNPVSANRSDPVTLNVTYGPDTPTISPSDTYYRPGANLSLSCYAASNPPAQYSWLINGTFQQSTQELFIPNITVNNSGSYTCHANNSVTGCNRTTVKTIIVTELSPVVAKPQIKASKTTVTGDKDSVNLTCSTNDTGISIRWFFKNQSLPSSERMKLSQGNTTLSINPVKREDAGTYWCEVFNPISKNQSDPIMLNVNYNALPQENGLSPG
Assay: SPR single-cycle, purified IgG captured
property-label: relative KD to parent
One number for each entry.

Req: Report relative KD to parent for CP08H03/CP08F05 (antibody, V domains shown, IgG4 (S241P), kappa) VH: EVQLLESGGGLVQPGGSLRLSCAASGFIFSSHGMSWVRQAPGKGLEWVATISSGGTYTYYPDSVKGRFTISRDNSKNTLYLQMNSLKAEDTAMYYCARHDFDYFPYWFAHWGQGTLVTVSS VL: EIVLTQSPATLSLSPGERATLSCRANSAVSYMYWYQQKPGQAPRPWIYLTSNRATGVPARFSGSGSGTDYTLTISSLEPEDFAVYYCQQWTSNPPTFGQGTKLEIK please.
Resp: 5
